B1: NP_002788.1 (parent)
chain: DGWIRVSSDNVADLHEKYSGSTP

variants of: B1; assay: protein stability index of a GFP-peptide fusion (GPS, HEK-293T) (PSI 1-6); higher = more stable; details: c terminus: native;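 note: lentivirally expressed fusion library, cells FACS-sorted into six equal-sized GFP/DsRed ratio bins, PSI computed from sequencing read fractions per bin weighted by bin number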
Kindly return rule met if reported protein stability index is no lower than 3; return rule not met if it is lower.

[[record]]
variant_name = "N10F"
classification = "rule not met"

[[record]]
variant_name = "K17V"
classification = "rule met"

[[record]]
variant_name = "V11G"
classification = "rule not met"

[[record]]
variant_name = "S8L"
classification = "rule not met"

[[record]]
variant_name = "D13W"
classification = "rule not met"

[[record]]
variant_name = "V11A"
classification = "rule not met"

[[record]]
variant_name = "S7D"
classification = "rule met"

[[record]]
variant_name = "D13L"
classification = "rule not met"

[[record]]
variant_name = "D13S"
classification = "rule not met"

[[record]]
variant_name = "D1Q"
classification = "rule not met"

[[record]]
variant_name = "S8I"
classification = "rule not met"

[[record]]
variant_name = "G2P"
classification = "rule not met"

[[record]]
variant_name = "V6L"
classification = "rule not met"

[[record]]
variant_name = "V11Q"
classification = "rule not met"

[[record]]
variant_name = "I4Y"
classification = "rule met"

